# system: Indoleamine 2,3-dioxygenase 1 (Homo sapiens)
# Sequence (P14902 whole entry): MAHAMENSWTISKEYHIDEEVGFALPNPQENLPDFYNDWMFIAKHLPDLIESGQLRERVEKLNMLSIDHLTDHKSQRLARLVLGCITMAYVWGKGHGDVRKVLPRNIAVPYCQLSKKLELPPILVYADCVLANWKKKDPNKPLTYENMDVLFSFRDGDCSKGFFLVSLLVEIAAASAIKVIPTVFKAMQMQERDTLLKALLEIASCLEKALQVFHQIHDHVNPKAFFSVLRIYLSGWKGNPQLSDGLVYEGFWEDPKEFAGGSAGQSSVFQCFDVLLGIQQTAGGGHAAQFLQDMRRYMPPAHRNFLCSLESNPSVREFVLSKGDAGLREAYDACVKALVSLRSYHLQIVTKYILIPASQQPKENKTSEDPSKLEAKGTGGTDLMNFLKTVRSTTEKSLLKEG
Criterion: IC50 strictly under 70 nM. Met: true. Not met: false.

Solved cases below.
                                   compound  categorylabel
0  O=C1CCC(=O)N1CCONc1nonc1/C(=N/O)Nc1ccc(F)c(Br)c1          false
1  O/N=C(\Nc1ccc(F)c(Br)c1)c1nonc1NOCCN1CCCC1          false
2  NC(=O)C(N)CCONc1nonc1/C(=N/O)Nc1ccc(F)c(Br)c1 (stereo not drawn)          false
3  CC(=O)NCCONc1nonc1/C(=N/O)Nc1ccc(F)c(Br)c1          false

IC50 under 70 nM? Item: NS(=O)(=O)NCC1(CONc2nonc2/C(=N/O)Nc2ccc(F)c(Br)c2)CC1
false

Please give the result for CC(=O)ONc1nonc1/C(=N/O)Nc1ccc(F)c(Br)c1 too.
false

Please give the result for O=C(NCCONc1nonc1/C(=N/O)Nc1ccc(F)c(Br)c1)Nc1cc(F)cc(F)c1 too.
true

Please give the result for O=C(ONc1nonc1/C(=N/O)Nc1ccc(F)c(Br)c1)c1ccccc1 too.
true

Please give the result for O=C(Nc1ccccc1)ONc1nonc1/C(=N/O)Nc1ccc(F)c(Br)c1 too.
true

* * *

# system: UniProt:P14902
readoutName: IC50 (nM)
Answers are plain numbers, in nM.

Examples from the recorded data:
>>> df
                                   molecule  numericreadout
0     CCCCONc1nonc1/C(=N/O)Nc1ccc(F)c(Br)c1              80
1  NC1CCC(ONc2nonc2/C(=N/O)Nc2ccc(F)c(Br)c2)CC1 (stereo unspecified)             184
2  O/N=C(\Nc1ccc(F)c(Br)c1)c1nonc1NOCCOc1ccccc1             120
3  O/N=C(\Nc1ccc(F)c(Br)c1)c1nonc1NOC1CCCNC1 (stereo unspecified)              80
4        CSNc1nonc1/C(=N/O)Nc1ccc(F)c(Cl)c1              53

Continue with the molecule presented below.
Could you tell me which IC50 is on file for O=C(NCCOCCONc1nonc1/C(=N/O)Nc1ccc(F)c(Br)c1)Nc1cc(F)cc(F)c1 ?
72

* * *

Please consider the recorded IC50 for Indoleamine 2,3-dioxygenase 1 (Homo sapiens, UniProt P14902) in what follows.
One number for each entry, in µM.

Examples from the recorded data:
In [3]: df
Out[3]:
                       smilesrepresentation  readoutname  numericreadout
0  O=C(NCCONc1nonc1/C(=N/O)Nc1ccc(F)c(Br)c1)NC1CCCC1         IC50           0.069
1  NS(=O)(=O)N1CCC(ONc2nonc2/C(=N/O)Nc2ccc(F)c(Br)c2)CC1         IC50           0.065

Provide IC50 for all items below, preserving their order.
1. O/N=C(\Nc1ccc(F)c(Br)c1)c1nonc1NO
2. O/N=C(\Nc1ccc(F)c(Cl)c1)c1nonc1NS

0.125
0.104
